# SYSTEM: human D4.2 receptor (Homo sapiens, UniProt P21917, DEL265-296)
# Sequence (P21917 with tags, fused parts or gaps DEL265-296): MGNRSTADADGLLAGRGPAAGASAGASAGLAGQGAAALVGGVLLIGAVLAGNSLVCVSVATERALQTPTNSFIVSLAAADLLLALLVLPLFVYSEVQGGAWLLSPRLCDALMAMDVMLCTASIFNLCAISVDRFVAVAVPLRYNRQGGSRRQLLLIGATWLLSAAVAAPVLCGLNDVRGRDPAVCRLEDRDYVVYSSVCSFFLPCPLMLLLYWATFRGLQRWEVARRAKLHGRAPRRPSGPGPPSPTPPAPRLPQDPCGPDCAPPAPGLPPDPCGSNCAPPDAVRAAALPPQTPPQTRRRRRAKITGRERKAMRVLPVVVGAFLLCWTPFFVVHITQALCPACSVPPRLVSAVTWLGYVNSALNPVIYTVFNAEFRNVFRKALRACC
# MEASUREMENT_NOTES: Dopamine D4 receptor binding experiment ([3H]-spiperone)
# CONDITION_DETAILS: CHO cell membranes expressing human D4.2 receptor, [3H]-spiperone (0.5 nM), 27°C, 2 hours
PARAMETER_MEASURED: IC50 (nM)

A = CNc1nc(-c2ccc(F)cc2)c(C2CCN(CCCC(=O)c3ccc(F)cc3)C2)s1 (racemic) [Compound D-13]
B = Nc1nc(-c2ccc(F)cc2)c(CCN2CCC(C(=O)c3ccc(F)cc3)CC2)s1 [Compound K-01]
Query: Which has the smaller recorded IC50, A or B ? Record your answer as the label of the chosen record.
Response: B
